The measured values listed here are drawn from patent US20240116985A1.

Molecular target: full-length beta-Catenin (Uniprot ID P35222) (Homo sapiens, UniProt P35222)
Construct: 10 nM full-length beta-Catenin (Uniprot ID P35222)
Sequence (P35222 whole entry): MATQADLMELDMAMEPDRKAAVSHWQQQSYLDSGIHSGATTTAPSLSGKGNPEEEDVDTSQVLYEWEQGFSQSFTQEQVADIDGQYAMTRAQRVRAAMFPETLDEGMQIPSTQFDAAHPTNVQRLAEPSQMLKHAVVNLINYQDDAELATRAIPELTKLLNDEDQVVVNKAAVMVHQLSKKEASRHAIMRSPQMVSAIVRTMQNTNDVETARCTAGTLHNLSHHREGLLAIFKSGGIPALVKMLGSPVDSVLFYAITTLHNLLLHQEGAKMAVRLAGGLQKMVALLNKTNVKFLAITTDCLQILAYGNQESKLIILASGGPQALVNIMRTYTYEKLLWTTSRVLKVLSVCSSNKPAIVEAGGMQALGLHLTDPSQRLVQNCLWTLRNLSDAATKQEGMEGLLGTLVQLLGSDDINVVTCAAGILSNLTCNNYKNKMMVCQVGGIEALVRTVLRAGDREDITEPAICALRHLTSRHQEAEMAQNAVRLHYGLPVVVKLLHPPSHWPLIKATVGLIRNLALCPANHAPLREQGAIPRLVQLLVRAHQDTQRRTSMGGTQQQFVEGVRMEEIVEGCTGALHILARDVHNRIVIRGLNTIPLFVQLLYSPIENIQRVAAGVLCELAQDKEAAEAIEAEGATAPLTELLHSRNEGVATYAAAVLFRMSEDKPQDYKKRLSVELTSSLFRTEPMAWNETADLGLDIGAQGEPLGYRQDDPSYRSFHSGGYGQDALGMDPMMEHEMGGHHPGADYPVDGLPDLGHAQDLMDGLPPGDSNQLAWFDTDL
Assay: Fluorescence polarization IC50 (beta-catenin / 5FAM-TCF4 10-53 competition)
Format: binding
Conditions: fluorescence polarization; read-out: beta-Catenin FP IC50
Value Kind: pIC50
Lab note: report pIC50 as minus log10 of the concentration in molar units, number only.

# pIC50 (molecule: CC(=O)N1CCC[C@]12CC=CCCCC1(CCCC=CCOC(=O)N(C)CCC[C@@](C)(C(=O)N[C@@H](Cc3cccc(F)c3)C(=O)N[C@@H](Cc3csc4ccccc34)C(=O)N[C@@H](CCC(N)=O)C(N)=O)NC(=O)[C@H](CCC(N)=O)NC(=O)[C@H](Cc3ccccc3)NC(=O)[C@H](C)NC(=O)[C@H](C)NC(=O)[C@H](Cc3c[nH]cn3)NC(=O)[C@H](CC(=O)O)NC1=O)NC(=O)[C@H](C)NC(=O)[C@H](CC(=O)O)NC2=O (some centres unmarked) ) is 5.45

# pIC50 (molecule: CC(=O)N1CCC[C@]12CC=CCCCC1(CCCC=CCCCCCC[C@@](C)(C(=O)N[C@@H](Cc3ccccc3)C(=O)N[C@@H](Cc3csc4ccccc34)C(=O)N[C@@H](CO)C(N)=O)NC(=O)[C@H](CC(N)=O)NC(=O)[C@H](Cc3ccccc3)NC(=O)[C@H](C)NC(=O)[C@H](C)NC(=O)[C@H](CCC(=O)O)NC(=O)[C@H](CC(=O)O)NC1=O)NC(=O)[C@H](CC(C)C)NC(=O)[C@H](CC(=O)O)NC2=O (some centres unmarked) [I-751] ) is 7.54

----------
Assay: Solubility in PBS
Format: physicochemical
Description: After ultracentrifugation of the PBS solution, the supernatant was analyzed by HPLC and compared to an HPLC injection 50 μM peptide DMSO solution. Solubility was determined by: [(Area of PBS peak)/(Area of DMSO peak)]*50 uM.
Value Kind: Solubility (µM)
Give the value in µM but do not write µM after it.

# Solubility (compound: C[C@@H]1NC(=O)[C@H](C)NC(=O)[C@H](CC(=O)O)NC(=O)[C@H](CC(=O)O)NC(=O)C2(CCCC=CCCCCCC[C@@](C)(C(=O)N[C@@H](Cc3ccsc3)C(=O)N[C@@H](Cc3csc4ccccc34)C(=O)N[C@@H](CCC(N)=O)C(N)=O)NC(=O)[C@H](CC(N)=O)NC(=O)[C@H](Cc3ccccc3)NC1=O)CCCC=CC[C@]1(CCCN1C(=O)CN=[N+]=[N-])C(=O)N[C@@H](CC(=O)O)C(=O)N[C@@H](CC(C)(C)C)C(=O)N2 (stereo partly drawn) [I-1053] ) is 48

# Solubility (compound: CC[C@H](C)[C@@H]1NC(=O)[C@H](CC(=O)O)NC(=O)[C@]2(CC=CCCCC3(CCCC=CCCCCCC[C@@](C)(C(=O)N[C@@H](Cc4ccccc4)C(=O)N[C@@H](Cc4csc5ccccc45)C(=O)N[C@@H](CCCNC(=N)N)C(N)=O)NC(=O)[C@H](CCC(N)=O)NC(=O)[C@H](Cc4ccccc4)NC(=O)[C@H](C)NC(=O)[C@H](C)NC(=O)[C@H](CCC(=O)O)NC(=O)[C@H](CC(=O)O)NC3=O)NC1=O)CCCN2C(C)=O (stereo partly drawn) ) is 10

# Solubility (compound: CC[C@H](C)[C@@H]1NC(=O)[C@H](CC(=O)O)NC(=O)[C@]2(CC=CCCCC3(CCCC=CCCCCCC[C@@](C)(C(=O)N[C@@H](Cc4ccccc4)C(=O)N[C@@H](Cc4csc5ccccc45)C(=O)N[C@@H](CCC(N)=O)C(N)=O)NC(=O)[C@H](CCC(N)=O)NC(=O)[C@H](Cc4ccccc4)NC(=O)[C@H](C)NC(=O)[C@H](C)NC(=O)[C@H](Cc4ccc(C(=O)O)cc4)NC(=O)[C@H](CC(=O)O)NC3=O)NC1=O)CCCN2C(C)=O (stereo partly drawn) [I-606] ) is 49
